Could you please report measured activity, negative = inhibition for the items listed next?
# Measurement Target: Cytochrome P450 2C9 (Homo sapiens)
# Protocol: Cytochrome panel assay with activity outcomes; also: % is scaled to controls: 0 for no effect and ±100 for the full control effect
# Condition Parameters: recombinant CYP, pro-luciferin dealkylation, luminescence, p450-cyp2c9; series mostly up to 57.1 µM
The campaign covered roughly 16,000 compounds. About 4,000 (25%) were called active. Roughly 26% stayed inconclusive and do not appear here. The list is a sample of the results.

Qu. Please look up its activity, negative = inhibition: CC(=O)OC[C@@H]1O[C@@H](O/N=C2/C[C@@H](O)[C@@H](O)[C@@H]3[C@@H]4C(=O)N(C(C)(C)C)C(=O)[C@H]4CC[C@H]23)[C@H](OC(C)=O)[C@H](OC(C)=O)[C@@H]1OC(C)=O
Ans. 2.66% [at 11.4 µM] (inactive)

Qu. Please look up its activity, negative = inhibition: COC(=O)CCCC(=O)O
Ans. -1.69% [at 11.4 µM] (inactive)

Qu. Please look up its activity, negative = inhibition: CC(C)=C[C@H]1[C@@H](C(=O)Oc2ccccc2C(C)C)C1(C)C
Ans. -15.1% [at 11.4 µM] (inactive)

Qu. Please look up its activity, negative = inhibition: CN1CCN(c2ccncc2S(=O)(=O)N2CCN(C)CC2)CC1
Ans. 14.6% [at 11.4 µM] (inactive)
